Each recorded value in this set is attributed to PubChem BioAssay AID2060488.

Reported viability, T/C is given for each of the following compounds.
- System: 966289-007-R4-J1-PDC complex spheroid viability;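 also: spheroids exposed to the agents for seven days before readout; percent viability relative to DMSO vehicle control wells taken as 100%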
- Assay info: Anticancer human tumor 966289-007-R4-J1-PDC patient-derived pancreatic adenocarcinoma cell line growth inhibition [GQUAD]
- Experimental setup: second compound 1 µM; first compound 0.316 µM; active compounds read low
# value in %; strip the unit string

query: In one line, give reported viability, T/C of the entry Cc1cccc(N(C)C(=O)C2C(O)CCN2c2nc(C)cc(C(F)(F)F)c2C#N)c1 (stereo not drawn) + Cc1cnc(CNC(=O)c2c(=O)c3ccc(N4CCCN(C)CC4)nc3n3c2sc2ccccc23)cn1 .
result: 7.01

query: In one line, give reported viability, T/C of the entry CCc1c2c(nc3ccc(O)cc13)-c1cc3c(c(=O)n1C2)COC(=O)[C@]3(O)CC + CN(C)c1ccc(Nc2c3ccc(NC(=O)CCN4CCCC4)cc3nc3cc(NC(=O)CCN4CCCC4)ccc23)cc1 .
result: 0.4

query: In one line, give reported viability, T/C of the entry CC(C)(O)C1CCC(Nc2ccc3ncc(-c4cccc(C(F)(F)F)c4)n3n2)CC1 (stereo not drawn) + CN(C)c1ccc(Nc2c3ccc(NC(=O)CCN4CCCC4)cc3nc3cc(NC(=O)CCN4CCCC4)ccc23)cc1 .
result: 102
